Measured TGI accompanies every entry in the list below.
Test system: OVCAR-4 ovarian
experiment: NCI tumour cell line growth inhibition, 48 h

Example entries begin here.
molecule	TGI
Cc1ccc(S(=O)(=O)NC(=O)NCCc2ccccc2)cc1	> 100 µM
Cc1ccc(S(=O)(=O)NC(=O)Nc2cccc(S(N)(=O)=O)c2)cc1	> 100 µM

Shift focus to the following entry.
Task: // map COC1CC(OC2CCC3(C)C(=CCC4C3C(OC(C)=O)C(OC(=O)CC(C)C)C3(C)C(C(C)=O)CCC43O)C2)OC(C)C1OC1CC(OC)C(OC2CC(OC)C(OC3OC(C)C(O)C(OC)C3O)C(C)O2)C(C)O1 (stereo unspecified) to recorded TGI (system: OVCAR-4 ovarian)
Result: > 100 µM

# credit: PubChem BioAssay (NCI)
